These entries and their values trace back to ChEMBL document CHEMBL5608186.

Test system: Streptococcus pneumoniae
Experiment: Selectivity ratio of MBC for Streptococcus pneumoniae ATCC 49619 to MIC for Streptococcus pneumoniae ATCC 49619
Assay type: functional
value.kind: Selectivity ratio
Answers are plain numbers.

Look at each compound and report its Selectivity ratio.
1. CC[C@H]1OC(=O)[C@H](C)[C@@H](OC(=O)CCNCCCCCNc2cc3c(cc2F)c(=O)c(C(=O)O)cn3C2CC2)[C@H](C)[C@@H](O[C@@H]2O[C@H](C)C[C@H](N(C)C)[C@H]2O)[C@](C)(OC)C[C@@H](C)/C(=N\OC)[C@H](C)[C@H]2OC(=O)O[C@@]21C
2. CC[C@H]1OC(=O)[C@H](C)[C@@H](OC(=O)CCN2CCN(c3cc4c(cc3F)c(=O)c(C(N)=O)cn4C3CC3)CC2)[C@H](C)[C@@H](O[C@@H]2O[C@H](C)C[C@H](N(C)C)[C@H]2O)[C@](C)(OC)C[C@@H](C)/C(=N\OCC#Cc2cncc(C(=O)NC)c2)[C@H](C)[C@H]2OC(=O)O[C@@]21C
3. CC[C@H]1OC(=O)[C@H](C)[C@@H](OC(=O)CCN2CCN(c3cc4c(cc3F)c(=O)c(C(=O)O)cn4CC)CC2)[C@H](C)[C@@H](O[C@@H]2O[C@H](C)C[C@H](N(C)C)[C@H]2O)[C@](C)(OC)C[C@@H](C)/C(=N\OCC#Cc2cncc(C(=O)NC)c2)[C@H](C)[C@H]2OC(=O)O[C@@]21C
4. C#CCO/N=C1\[C@H](C)C[C@@](C)(OC)[C@H](O[C@@H]2O[C@H](C)C[C@H](N(C)C)[C@H]2O)[C@@H](C)[C@H](OC(=O)CCN2CCN(c3cc4c(cc3F)c(=O)c(C(=O)O)cn4C3CC3)CC2)[C@@H](C)C(=O)O[C@H](CC)[C@@]2(C)OC(=O)O[C@@H]2[C@H]1C
5. CC[C@H]1OC(=O)[C@H](C)[C@@H](OC(=O)NCCCc2ccc3c(c2)c(=O)c(C(=O)O)cn3C2CC2)[C@H](C)[C@@H](O[C@@H]2O[C@H](C)C[C@H](N(C)C)[C@H]2O)[C@](C)(OC)C[C@@H](C)/C(=N\OC)[C@H](C)[C@H]2OC(=O)O[C@@]21C

Data returned:
2
4
1
1
2
